Source listed as patent US6825172B2.

Test system: S. pneumoniae ATCC49619
assay-explanation: MIC, microdilution broth method (NCCLS)
Type: cell-based
condition-info: Streptococcus pneumoniae, Table 1, 6-Carbamoyl-3-Acyl Macrolide Derivatives, read-out: MIC Values, D: S. pneumoniae ATCC49619
attribute-measured: MIC (µg/mL)
Numbers only; they are read as µg/mL.

Examples with answers:
INSERT INTO results (input_smiles, system_name, test_result) VALUES
  ('CC[C@H]1OC(=O)[C@H](C)[C@@H](OC(=O)Cc2cccnc2)[C@H](C)[C@@H](O[C@@H]2O[C@H](C)C[C@H](N(C)C)[C@H]2O)[C@](C)(OC(=O)NC/C=C/c2ccc(C(F)(F)F)nc2)C[C@@H](C)C(=O)[C@H](C)[C@H]2NC(=O)O[C@@]21C', 'S. pneumoniae ATCC49619', 0.06),
  ('CC[C@H]1OC(=O)[C@H](C)[C@@H](OC(=O)C(C)C)[C@H](C)[C@@H](O[C@@H]2O[C@H](C)C[C@H](N(C)C)[C@H]2O)[C@](C)(OC(=O)NC/C=C/c2cnc3ccccc3c2)C[C@@H](C)C(=O)[C@H](C)[C@H]2NC(=O)O[C@@]21C', 'S. pneumoniae ATCC49619', 0.03);

Kindly review the next molecule as well.
Q. Using the record for CC[C@H]1OC(=O)[C@H](C)[C@@H](OC(=O)/C(=N/OC)c2cccnc2)[C@H](C)[C@@H](O[C@@H]2O[C@H](C)C[C@H](N(C)C)[C@H]2O)[C@](C)(OC(=O)NC/C=C/c2ccc(-c3ncccn3)cc2)C[C@@H](C)C(=O)[C@H](C)[C@H]2NC(=O)O[C@@]21C , report its MIC.
A. 0.12

---

Test system: H. influenzae ATCC49247
assay-explanation: MIC, microdilution broth method (NCCLS)
Type: cell-based
condition-info: Haemophilus influenzae, Table 2, 3,6-Dicarbamoyl Macrolide Derivatives, read-out: MIC Values, E: H. influenzae ATCC49247
Reported values of MIC for individual entries
Record the value in µg/mL, omitting the unit from your answer.

Q. Which MIC is listed for CC[C@H]1OC(=O)[C@H](C)[C@@H](OC(=O)N(C)Cc2cccnc2)[C@H](C)[C@@H](O[C@@H]2O[C@H](C)C[C@H](N(C)C)[C@H]2O)[C@](C)(OC(=O)NC/C=C/c2ccc(-c3ncccn3)cc2)C[C@@H](C)C(=O)[C@H](C)[C@H]2NC(=O)O[C@@]21C [Compound 58] ?
A. 2

Q. Looking for the measured MIC of CC[C@H]1OC(=O)[C@H](C)[C@@H](OC(=O)N2CCOCC2)[C@H](C)[C@@H](O[C@@H]2O[C@H](C)C[C@H](N(C)C)[C@H]2O)[C@](C)(OC(=O)NC/C=C/c2ccc(-c3ncccn3)cc2)C[C@@H](C)C(=O)[C@H](C)[C@H]2NC(=O)O[C@@]21C [Compound 63] , can you help?
A. 4

Q. Please look up its MIC: CC[C@H]1OC(=O)[C@H](C)[C@@H](OC(=O)N2CCCCC2)[C@H](C)[C@@H](O[C@@H]2O[C@H](C)C[C@H](N(C)C)[C@H]2O)[C@](C)(OC(=O)NC/C=C/c2ccc(-c3ncccn3)cc2)C[C@@H](C)C(=O)[C@H](C)[C@H]2NC(=O)O[C@@]21C [Compound 64]
A. 8

Q. What does the data say about its MIC? Entry: CC[C@H]1OC(=O)[C@H](C)[C@@H](OC(=O)N2Cc3cccnc3C2)[C@H](C)[C@@H](O[C@@H]2O[C@H](C)C[C@H](N(C)C)[C@H]2O)[C@](C)(OC(=O)NC/C=C/c2ccc(-c3ncccn3)cc2)C[C@@H](C)C(=O)[C@H](C)[C@H]2NC(=O)O[C@@]21C [Compound 67]
A. 8

Q. # input compound: CC[C@H]1OC(=O)[C@H](C)[C@@H](OC(=O)NC2CCCCC2)[C@H](C)[C@@H](O[C@@H]2O[C@H](C)C[C@H](N(C)C)[C@H]2O)[C@](C)(OC(=O)NC/C=C/c2ccc(-c3ncccn3)cc2)C[C@@H](C)C(=O)[C@H](C)[C@H]2NC(=O)O[C@@]21C [Compound 51] ; wanted: its MIC
A. 2

Q. Query: MIC; subject: CC[C@H]1OC(=O)[C@H](C)[C@@H](OC(=O)Nc2ccc(F)cc2)[C@H](C)[C@@H](O[C@@H]2O[C@H](C)C[C@H](N(C)C)[C@H]2O)[C@](C)(OC(=O)NC/C=C/c2ccc(-c3ncccn3)cc2)C[C@@H](C)C(=O)[C@H](C)[C@H]2NC(=O)O[C@@]21C [Compound 52]
A. 4

---

Listed here: items and their measured MIC.
Tested on: S. pneumoniae ATCC49619
assay-explanation: MIC, microdilution broth method (NCCLS)
Type: cell-based
condition-info: Streptococcus pneumoniae, Table 2, 3,6-Dicarbamoyl Macrolide Derivatives, read-out: MIC Values, D: S. pneumoniae ATCC49619
Write down the numeric answer in µg/mL and omit the unit.

Q. # returns recorded MIC (system: S. pneumoniae ATCC49619) for CC[C@H]1OC(=O)[C@H](C)[C@@H](OC(=O)N(C)OC)[C@H](C)[C@@H](O[C@@H]2O[C@H](C)C[C@H](N(C)C)[C@H]2O)[C@](C)(OC(=O)NC/C=C/c2ccc(-c3ncccn3)cc2)C[C@@H](C)C(=O)[C@H](C)[C@H]2NC(=O)O[C@@]21C
A. 0.06

Q. Field: MIC (S. pneumoniae ATCC49619). Entry: CC[C@H]1OC(=O)[C@H](C)[C@@H](OC(=O)N(C)C(C)C)[C@H](C)[C@@H](O[C@@H]2O[C@H](C)C[C@H](N(C)C)[C@H]2O)[C@](C)(OC(=O)NC/C=C/c2ccc(-c3ncccn3)cc2)C[C@@H](C)C(=O)[C@H](C)[C@H]2NC(=O)O[C@@]21C
A. 0.06

Q. Form entry - test system: S. pneumoniae ATCC49619; read-out: MIC; compound: CC[C@H]1OC(=O)[C@H](C)[C@@H](OC(=O)Nc2ccc(Cl)c(Cl)c2)[C@H](C)[C@@H](O[C@@H]2O[C@H](C)C[C@H](N(C)C)[C@H]2O)[C@](C)(OC(=O)NC/C=C/c2ccc(-c3ncccn3)cc2)C[C@@H](C)C(=O)[C@H](C)[C@H]2NC(=O)O[C@@]21C
A. 0.5

Q. Form field - read-out: MIC; system: S. pneumoniae ATCC49619; submitted item: CC[C@H]1OC(=O)[C@H](C)[C@@H](OC(=O)N(CC)CC)[C@H](C)[C@@H](O[C@@H]2O[C@H](C)C[C@H](N(C)C)[C@H]2O)[C@](C)(OC(=O)NC/C=C/c2ccc(-n3cncn3)cc2)C[C@@H](C)C(=O)[C@H](C)[C@H]2NC(=O)O[C@@]21C
A. 0.06

---

Test system: S. pneumoniae ATCC49619
assay-explanation: MIC, microdilution broth method (NCCLS)
Format: cell-based
condition-info: Streptococcus pneumoniae, Table 2, 3,6-Dicarbamoyl Macrolide Derivatives, read-out: MIC Values, D: S. pneumoniae ATCC49619
The entries below are paired with their reported MIC.
Reply numerically in µg/mL, unit not repeated.

Field: example entries. Status: answers known.
INSERT INTO assay_data (input_smiles, attribute_measured, test_result) VALUES
  ('CC[C@H]1OC(=O)[C@H](C)[C@@H](OC(=O)Nc2ccc3ccccc3c2)[C@H](C)[C@@H](O[C@@H]2O[C@H](C)C[C@H](N(C)C)[C@H]2O)[C@](C)(OC(=O)NC/C=C/c2ccc(-c3ncccn3)cc2)C[C@@H](C)C(=O)[C@H](C)[C@H]2NC(=O)O[C@@]21C', 'MIC', 0.25),
  ('CC[C@H]1OC(=O)[C@H](C)[C@@H](OC(=O)N2CCOCC2)[C@H](C)[C@@H](O[C@@H]2O[C@H](C)C[C@H](N(C)C)[C@H]2O)[C@](C)(OC(=O)NC/C=C/c2ccc(-c3ncccn3)cc2)C[C@@H](C)C(=O)[C@H](C)[C@H]2NC(=O)O[C@@]21C', 'MIC', 0.06),
  ('CC[C@H]1OC(=O)[C@H](C)[C@@H](OC(=O)N(CC)CC)[C@H](C)[C@@H](O[C@@H]2O[C@H](C)C[C@H](N(C)C)[C@H]2O)[C@](C)(OC(=O)NC/C=C/c2ccc(-c3cnccn3)cc2)C[C@@H](C)C(=O)[C@H](C)[C@H]2NC(=O)O[C@@]21C', 'MIC', 0.06);

Kindly consider the entry below.
Q. S. pneumoniae ATCC49619 / MIC / CC[C@H]1OC(=O)[C@H](C)[C@@H](OC(=O)N2Cc3cccnc3C2)[C@H](C)[C@@H](O[C@@H]2O[C@H](C)C[C@H](N(C)C)[C@H]2O)[C@](C)(OC(=O)NC/C=C/c2ccc(-c3ncccn3)cc2)C[C@@H](C)C(=O)[C@H](C)[C@H]2NC(=O)O[C@@]21C : value?
A. 0.06
